- System: Rfc1
- protocol: Yeast two hybrid (Y2H) analysis of PCNA-partner interaction
- Type: binding
- Set-up: key: ++: major increase in growth; +: moderate increase in growth; similar growth as the WT PCNA-expressing cells; -: minor decrease in growth; --: moderate decrease in growth; ---: major decrease in growth
- condition-set: spotting onto selective agar plates; PCNA fused to AD, partner to BD
observation-type: Y2H growth relative to WT PCNA-expressing strain: Rfc1

molecule	recorded-result
pol30-Msh6E6: PCNA mutant evolved for Msh6, IDCL sequence DYDKDLLKIIEL (protein, left off: Gal4 activation domain, end not stated, kept) MLEAKFEEASLFKRIIDGFKDCVQLVNFQCKEDGIIAQAVDDSRVLLVSLEIGVEAFQEYRCDHPVTLGMDLTSLSKILRCGNNTDTLTLIADNTPDSIILLFEDTKKDRIAEYSLKLMDYDKDLLKIIELQYDSTLSLPSSEFSKIVRDLSQLSDSINIMITKETIKFVADGDIGSGSVIIKPFVDMEHPETSIKLEMDQPVDLTFGAKYLLDIIKGSSLSDRVGIRLSSEAPALFQFDLKSGFLQFFLAPKFNDEE	WT
pol30-Rad30E2: PCNA mutant evolved for Rad30, IDCL sequence DDDWDFLKILEL (protein, left off: Gal4 activation domain, end not stated, kept) MLEAKFEEASLFKRIIDGFKDCVQLVNFQCKEDGIIAQAVDDSRVLLVSLEIGVEAFQEYRCDHPVTLGMDLTSLSKILRCGNNTDTLTLIADNTPDSIILLFEDTKKDRIAEYSLKLMDDDWDFLKILELQYDSTLSLPSSEFSKIVRDLSQLSDSINIMITKETIKFVADGDIGSGSVIIKPFVDMEHPETSIKLEMDQPVDLTFGAKYLLDIIKGSSLSDRVGIRLSSEAPALFQFDLKSGFLQFFLAPKFNDEE	WT
